Reference source for all entries: patent US8129558B2

assay: logP determination by HPLC on reversed-phase column (C18), EEC Directive 79/831 Annex V.A8; type: physicochemical; settings: C18, 40° C., 0.1% aqueous formic acid and acetonitrile
quantity: logPa

Below, each entry is followed by its recorded logPa result.
compound="CCN(C)C=Nc1cc(C)c(Oc2ccc3ccccc3c2)cc1C.O=C(O)C(=O)O [Compound 35]" testvalue=2.25
compound="Cc1cc(Oc2ccc3cc(S(=O)(=O)NCCO)ccc3c2)c(C)cc1N=CN(C)C(C)C [Compound 31]" testvalue=1.75
compound="Cc1cc(Oc2ccc3cc(C(=O)c4ccccc4)ccc3c2)c(C)cc1N=CN(C)C(C)C [Compound 13]" testvalue=2.75
compound="Cc1cc(Oc2ccc3cc(Br)ccc3c2)c(C)cc1N=CN(C)C(C)C [Compound 7]" testvalue=2.92
compound="CC(=O)O.CCN(C)C=Nc1cc(C)c(Oc2ccc3ccccc3c2)cc1C [Compound 34]" testvalue=2.33

P. Cc1cc(Oc2ccc3ccccc3c2)c(C)cc1N=CN1CCOCC1 [Compound 21]
Q. CON=C(c1ccccc1)c1ccc2cc(Oc3cc(C)c(N=CN(C)C(C)C)cc3C)ccc2c1 [Compound 27]
(Q) Returns: the argument ( P or Q ) having the larger logPa. Indicate your choice by writing its label.
(A) Q

###

test: logP determination by HPLC on reversed-phase column (C18), EEC Directive 79/831 Annex V.A8; assay type: physicochemical; settings: C18, 40° C., 0.1% aqueous formic acid and acetonitrile
quantity: logPa

molecule=COc1ccc2cc(Oc3cc(C)c(N=CN(C)C(C)C)cc3C)ccc2c1 testvalue=2.70
molecule=Cc1cc(Oc2ccc3ccccc3c2)c(C)cc1N=CN1CCNCC1 testvalue=1.55
molecule=CCN(C)C=Nc1cc(C)c(Oc2cccc3ccccc23)cc1C testvalue=2.43
molecule=COc1ccc2ccc(Oc3cc(C)c(N=CN(C)C(C)C)cc3C)cc2c1 testvalue=2.56
molecule=CCN(C)C=Nc1cc(C)c(Oc2ccc3cc(Br)ccc3c2)cc1C testvalue=2.69
molecule=Cc1cc(Oc2ccc3cc(C#N)ccc3c2)c(C)cc1N=CN(C)C(C)C testvalue=2.20
molecule=CCCN(C)C=Nc1cc(C)c(Oc2ccc3cc(Br)ccc3c2)cc1C testvalue=2.89
molecule=CCN(C)C=Nc1cc(C)c(Oc2ccc3cc(C(=O)c4ccccc4)ccc3c2)cc1C testvalue=2.66
molecule=CCN(C)C=Nc1cc(C)c(Oc2ccc3cc(C(=NOC)c4ccccc4)ccc3c2)cc1C testvalue=3.05
molecule=Cc1cc(Oc2ccc3ccccc3c2)c(C)cc1N=CN(C)C(C)C testvalue=2.52
molecule=CCCCNc1ccc2ccc(Oc3cc(C)c(N=CN(C)CC)cc3C)cc2c1 testvalue=2.62
molecule=Cc1cc(Oc2ccc3ccccc3c2)c(C)cc1N=CN1CCCC1 testvalue=2.33
molecule=CCCN(C)C=Nc1cc(C)c(Oc2ccc3ccc(OC)cc3c2)cc1C testvalue=2.61
molecule=CCCN(C)C=Nc1cc(C)c(Oc2ccc3cc(C(=O)c4ccccc4)ccc3c2)cc1C testvalue=2.77
molecule=CCCCNc1ccc2ccc(Oc3cc(C)c(N=CN(C)CCC)cc3C)cc2c1 testvalue=2.91
molecule=CCCN(C)C=Nc1cc(C)c(Oc2ccc3cc(C(=NOC)c4ccccc4)ccc3c2)cc1C testvalue=3.14
molecule=Cc1cc(Oc2ccc3ccccc3c2)c(C)cc1N=CN1CCN(C)CC1 testvalue=1.64
molecule=CCCN(C)C=Nc1cc(C)c(Oc2ccc3cc(C#N)ccc3c2)cc1C testvalue=2.23
molecule=CCN(C)C=Nc1cc(C)c(Oc2ccc3ccccc3c2)cc1C.O=C(O)c1ccccc1 testvalue=2.44
molecule=Cc1cc(Oc2ccc3ccc(O)cc3c2)c(C)cc1N=CN(C)C(C)C testvalue=2.02
molecule=CCN(C)C=Nc1cc(C)c(Oc2ccc3ccc(O)cc3c2)cc1C testvalue=1.92
molecule=CCN(C)C=Nc1cc(C)c(Oc2ccc3cc(C#N)ccc3c2)cc1C testvalue=2.07
molecule=CCN(C)C=Nc1cc(C)c(Oc2ccc3ccc(OC)cc3c2)cc1C testvalue=2.44
molecule="CCN(C)C=Nc1cc(C)c(Oc2ccc3cc(C(O)c4ccccc4)ccc3c2)cc1C (racemic)" testvalue=2.21
molecule=CCCCNc1ccc2ccc(Oc3cc(C)c(N=CN(C)C(C)C)cc3C)cc2c1 testvalue=2.91
